Target: T1, PD-L1 proteins (R&D systems) (UniProt Q9NZQ7 19-239, limits assumed)
T1 construct: Commercial recombinant PD-L1; It was immobilized on a CM5 chip for SPR and used in solution for the FP assay; also called immobilized PD-L1 proteins
T1 sequence (Q9NZQ7 19-239 limits assumed): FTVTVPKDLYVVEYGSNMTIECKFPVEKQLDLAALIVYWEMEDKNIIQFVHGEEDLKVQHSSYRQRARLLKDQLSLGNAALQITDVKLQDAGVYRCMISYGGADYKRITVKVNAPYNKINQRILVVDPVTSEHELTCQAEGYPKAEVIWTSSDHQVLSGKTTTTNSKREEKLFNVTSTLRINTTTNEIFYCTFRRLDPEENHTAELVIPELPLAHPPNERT
Test: SPR (BIAcore X), PD-L1 immobilized on CM5 chip, four concentrations (17-42 µM by the legend)
No end group written: not given here.
readout-type: pKd
// returns pKd (minus log10 of molar concentration), number only

## Task Which pKd value belongs to HVVWHRESPSGQTDTKAA-NH2 (also called H2_mt peptides; free peptides) [free βH2_mt peptide] ?
## Result 3.92
